Listed here are compounds together with their documented Population Apoptotic (%).
system: Fibroblast; test: Multiplex assay against human fibroblast; assay type: toxicity, cell-based; conditions: 12 h, 1 µM, compound concentration 1 uM, replicate 2
# number only, unit % dropped from output

Below, each entry is followed by its recorded Population Apoptotic (%) result.
INSERT INTO results (compound, experimental_target, experimental_readout, measurement) VALUES
  ('CC(C)(C)c1ccc(CSc2cnn(C(C)(C)C)c(=O)c2Cl)cc1', 'Fibroblast', 'Population Apoptotic (%)', 44),
  ('OCCCNc1cc(-c2ccnc(Nc3cccc(Cl)c3)n2)ccn1', 'Fibroblast', 'Population Apoptotic (%)', 50),
  ('COc1c(Nc2ccc(S(C)(=O)=O)nc2C)ncnc1OC1CCN(C(=O)OC(C)C)CC1', 'Fibroblast', 'Population Apoptotic (%)', 42),
  ('CC(F)(F)CN1CCOc2c(nn(-c3ccccc3Cl)c2-c2ccc(Cl)cc2)C1=O', 'Fibroblast', 'Population Apoptotic (%)', 31);

Let us move to another entry and its Population Apoptotic (%).
Q. Provide value of Population Apoptotic (%) for this record tested with Fibroblast: CN1CCN2c3ccccc3Cc3ccccc3C2C1.Cl (stereo not given) [MIANSERIN HYDROCHLORIDE]
A. 38
